system: RXF 393; assay: NCI tumour cell line growth inhibition, 48 h
Activity calls are given as the source filed them. No stated cut-off is given here; in the data, active = GI50 up to about 1.1 µM and inactive = higher.
GI50 for assorted compounds

Worked examples, 3 compounds total:
>>> endpointresult("Nc1c(Br)cc(-c2cc(Br)c(N)c(Br)c2)cc1Br")
"33.6 µM (inactive)"
>>> endpointresult("Cc1cccc(C)c1NC(=O)C1C(=O)N(c2c(C)cccc2C)C(=O)/C1=N\\N (centres undefined)")
"> 100 µM (inactive)"
>>> endpointresult("O=[N+]([O-])c1ccc2c3c1[C@@H]1O[C@@H]1c1cccc(c1-3)[C@@H]1O[C@H]21")
"4.17 µM (inactive)"

Give the measured GI50 of N#CC(C(=O)/C(=N/NC(=O)c1ccccc1O)C(C#N)c1ccc(Br)cc1)c1ccc(Br)cc1 (centres undefined) . 4.71 µM (inactive)

// returns reported GI50 for input COc1cccc2nc3c(C(=O)NCCN(C)C)cccc3nc12 11.6 µM (inactive)

Which GI50 is reported for this compound? COc1cc(/C=C/C(=N\NS(=O)(=O)c2ccc(C)cc2)c2sc(NNC(C)=O)nc2C)ccc1O > 100 µM (inactive)

Dear colleague, I am looking for the recorded GI50 of the following compound: CC1CCCc2c(CC3CC(=O)NC(=O)C3)n[nH]c21 (centres undefined) > 100 µM (inactive)

May I ask what GI50 has been recorded for CCOC(=O)C1(C(=O)OCC)C(C(C)(C)C)=C(C)c2ccccc21 ? 13.5 µM (inactive)

Entry under review: [N-]=[N+]=NC[C@H]1OCO[C@H](CN=[N+]=[N-])[C@@H](OCCOCCCl)[C@@H]1OCCOCCCl . Reported GI50? 5.66 µM (inactive)

Values were extracted from ChEMBL document CHEMBL1201862.
